Reference source for all entries: PubChem BioAssay AID463204

System: S. cerevisiae Mot1-301 ts growth rescue, BacTiter-Glo ATP luminescence
method: restored Mot1-301 yeast growth at 38.5C – whole organism, S. cerevisiae, Mot1-301 ts mutant, luminescence, dose retest, SUMOylation pathway inhibitor project, confirmation (AID 463204);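 further: growth at restrictive 38.5 degrees C of Mot1-301 OY566 strain; actives raise luminescence by restoring growth of the ts mutant at high temperature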
Calls of active or inactive are those of the source.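 How the source made its calls: active means AC50 no more than ten times the top concentration tested, that is within one log above it; inconclusive means flat curve fit with activity between 30% and 70%, or invalid poor fit; inactive means AC50 beyond ten times the top tested dose.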
Answer with one of the outcomes given here: YES = active, NO = inactive

These recorded examples may help you get a feel for the data.
Nc1ccnc(=O)[nH]1: NO
CCOC(=O)Nc1sc(=S)n(C)c1C: NO
CC(=O)Nc1nn(C)c2nc3ccc(C)cc3cc12: NO
COc1ccc2c(c1)[C@@]13CCC=C[C@H]1[C@@H](C2)NCC3: NO
CC(=O)N(C(C)=O)C1=C(C#N)C2(CCCCC2)Cc2ccccc21: NO
COc1ccccc1NC(=O)c1nn(C)cc1Br: NO

Fill in: this test's call for O=C(O)C1C(C(=O)O)C2(Cl)C(Cl)=C(Cl)C1(Cl)C2(Cl)Cl (centres undefined) is ___
NO

Fill in: this test's call for CNS(=O)(=O)c1cccc(C(=O)NCC2(N3CCCCC3)CCCCC2)c1 is ___
YES

Fill in: this test's call for Cc1ccc(NC(=S)NC(NC(=O)c2ccccc2C)C(Cl)(Cl)Cl)c(C)c1 (centres undefined) is ___
NO

Fill in: this test's call for CCN1CCN(C(=O)c2ccc3nc(-c4ccccc4)c(-c4ccccc4)nc3c2)CC1 is ___
NO
